Where do the numbers come from? From patent US20260250290A1.

# assayed-system: full length SGK1 (Homo sapiens)
# Construct: 125 μM full length SGK1 (Life Technologies Part #PR7358A); purchased Life Technologies PR7358A
# Sequence (O00141 whole entry): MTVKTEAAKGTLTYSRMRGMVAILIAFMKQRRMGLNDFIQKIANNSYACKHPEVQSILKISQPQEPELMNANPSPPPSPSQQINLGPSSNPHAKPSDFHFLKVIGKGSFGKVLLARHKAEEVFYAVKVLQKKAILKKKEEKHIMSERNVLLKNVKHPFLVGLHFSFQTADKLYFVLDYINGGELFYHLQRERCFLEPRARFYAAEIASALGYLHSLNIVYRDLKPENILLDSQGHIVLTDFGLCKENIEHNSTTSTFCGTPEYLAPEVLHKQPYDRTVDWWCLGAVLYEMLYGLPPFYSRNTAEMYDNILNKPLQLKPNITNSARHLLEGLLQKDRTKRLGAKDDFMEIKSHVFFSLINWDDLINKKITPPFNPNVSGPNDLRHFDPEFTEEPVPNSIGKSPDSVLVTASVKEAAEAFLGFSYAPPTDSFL
# protocol-notes: SGK1 inhibition Assay A (Caliper LabChip electrophoretic separation of fluorescent peptide substrate and phosphorylated product)
# Format: biochemical
# protocol-conditions: Assay A; 20 μM ATP, 40 min incubation; read-out: SGK1 IC50
Structures can show the parent of a compound that is named as a salt.
endpoint-label: pIC50
API: returns pIC50 as number; meaning -log10 of concentration in mol/L.

Answered cases to consult:
compound	assayed-system	readout-value
COC(=O)N(C)CCOc1cc(Cl)sc1C(=O)N[C@@H]1CCCN(c2cc(C3=CCN(C(C)=O)C3)n3ncnc(N)c23)C1	full length SGK1 (Homo sapiens)	9.00
Cc1cc(-c2cc(N3CCC[C@@H](NC(=O)c4sc(C(F)F)cc4OC4CCN(C)CC4)C3)c3c(N)ncnn23)cnc1C#N	full length SGK1 (Homo sapiens)	8.70
COC(=O)N1CC=C(c2cc(N3CCC[C@@H](NC(=O)c4sc5ccccc5c4OC4CCN(C(=O)OC(C)(C)C)CC4)C3)c3c(N)ncnn23)C1	full length SGK1 (Homo sapiens)	7.00
COC(=O)N1CC=C(c2cc(N3CCC[C@@H](NC(=O)c4sc(Cl)cc4OCCN4CCOC(C)C4)C3)c3c(N)ncnn23)C1 (stereo partly shown)	full length SGK1 (Homo sapiens)	7.64
CC(=O)N1CC=C(c2cc(N3CCCC(NC(=O)c4sc(Cl)cc4OC4CC5CC4CN5C)C3)c3c(N)ncnn23)C1 (single isomer, unassigned) [Example 608]	full length SGK1 (Homo sapiens)	8.10

Supply measured pIC50 of COC(=O)N1CC=C(c2cc(N3CCC[C@@H](NC(=O)c4sc(Cl)cc4OC4CCN(CC(C)(C)O)CC4)C3)c3c(N)ncnn23)C1 in your reply.
7.96

Supply measured pIC50 of CC(=O)N1CC=C(c2cc(N3CCC[C@@H](NC(=O)c4sc5ccncc5c4OCCN(C)C)C3)c3c(N)ncnn23)C1 in your reply.
7.66

Supply measured pIC50 of COC(=O)N1CC=C(c2cc(N3CCC[C@@H](NC(=O)c4[nH]c5ccccc5c4OCCN(C)C)C3)c3c(N)ncnn23)C1 in your reply.
7.68

Supply measured pIC50 of CN1CCN(CCOc2cc(Cl)sc2C(=O)N[C@@H]2CCCN(c3cc(C4=CCN(S(C)(=O)=O)C4)n4ncnc(N)c34)C2)CC1 in your reply.
8.30

Supply measured pIC50 of CC(=O)N1CC=C(c2cc(N3CCC[C@@H](NC(=O)c4sc(Cl)cc4OC4CC5CC4CN5)C3)c3c(N)ncnn23)C1 (single isomer, unassigned) [Example 607] in your reply.
8.52

Supply measured pIC50 of COC(=O)N1CC=C(c2cc(N3CCC[C@@H](NC(=O)c4sc(Cl)cc4OCC4CCNCC4)C3)c3c(N)ncnn23)C1 in your reply.
8.10

Supply measured pIC50 of COc1cc(C(=O)N[C@@H]2CCCN(c3cc(-c4ccc(S(C)(=O)=O)cc4)n4ncnc(N)c34)C2)ccn1 [Example 46, TFA] in your reply.
8.00

Supply measured pIC50 of NC(=O)N1CC=C(c2cc(N3CCC[C@@H](NC(=O)c4ccc(Cl)s4)C3)c3c(N)ncnn23)C1 in your reply.
8.52
